Data provenance: patent US20250270328A1

Target Or Test System: T1, human KLRB1 protein extracellular domain (ECD) (human, UniProt Q12918 67-225)
T1 construct: range 67-225; The ELISA and SPR text says only 'human KLRB1 ECD'; also called human KLRB1 ECD; CD161
T1 sequence (looked up): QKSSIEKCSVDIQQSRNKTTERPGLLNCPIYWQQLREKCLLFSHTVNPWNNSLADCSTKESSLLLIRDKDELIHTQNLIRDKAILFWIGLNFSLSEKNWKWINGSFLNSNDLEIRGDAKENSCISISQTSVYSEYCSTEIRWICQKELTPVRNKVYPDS
Experiment Description: SPR, human KLRB1 ECD; format not stated
Quantity Name: koff (s⁻¹)
Write the value in s⁻¹ as a bare number.

As a guide, the following entries are already answered.
- Binder: "10A3D6C109Chum2.3 (antibody, V domains shown, Humanized variant of 10A3D6 made by CDR grafting) VH: QVQLVQSGAEVKKPGASVKVSCKASGYSFTGYTMNWVRQAPGQNLEWIGLINPNTGGTYYNQKFKDRVTLTVDTSISTAYMELSRLRSDDTAVYYCARLGDNYRGYFDCWGQGTTVTVSS VL: DIQLTQSPSFLSASVGDRVTITCKASQDVGTAVVWYQQTPGKAPKLLIDWASIRHTGVPSRFSGSGSGTEFTLTISSLQPEDFADYFCQQYSTYLYTFGGGTKLEIK"
  Units Of Measure: "s⁻¹"
  koff: "9.41e-05"
- Binder: "10A3D6C109Chum3.4 (antibody, V domains shown, Humanized variant of 10A3D6 made by CDR grafting) VH: QVQLVQSGAEVKKPGASVKVSCKASGYSFTGYTMNWVRQAHGQNLEWIGLINPNTGGTYYNQKFKDRVTLTVDTSISTAYMELSRLRSDDTAVYYCARLGDNYRGYFDCWGQGTTVTVSS VL: DIQLTQSPSFLSASVGDRVTITCKASQDVGTAVVWYQQTPGKAPKLLIDWASIRHTGVPDRFSGSGSGTEFTLTISSLQPEDFADYFCQQYSTYLYTFGGGTKLEIK"
  Units Of Measure: "s⁻¹"
  koff: "9.2e-05"

# input What does the data say about its koff? Entry: 10A3D6C109Chum2.4 (antibody, V domains shown, Humanized variant of 10A3D6 made by CDR grafting) VH: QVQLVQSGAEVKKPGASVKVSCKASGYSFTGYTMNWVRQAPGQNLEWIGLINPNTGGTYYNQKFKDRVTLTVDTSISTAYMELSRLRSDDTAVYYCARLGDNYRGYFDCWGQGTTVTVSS VL: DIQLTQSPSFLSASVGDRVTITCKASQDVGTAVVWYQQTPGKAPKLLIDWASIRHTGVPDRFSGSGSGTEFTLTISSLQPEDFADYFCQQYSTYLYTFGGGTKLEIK
# output 9.68e-05
